Ref: ChEMBL document CHEMBL4312015

- Test system: NCI-H1975
- EXPERIMENT: Antiproliferative activity human NCI-H1975 cells harboring EGFR T790M/L858R double mutant assessed as inhibition of cell growth at 10 uM after 72 hrs by MTT assay relative to control
- Type: functional
- CONDITION_SUMMARY: NCI-H1975, 72 h
READOUT_LABEL: inhibition at 10 µM
Enter the number, and then the unit.

COc1cc(N(C)CCN(C)C)c(NC(=O)/C=C\C(C)C)cc1Nc1nc2c(c(-c3cn(C)c4ccc(F)cc34)n1)CSCC2 = 99.7%

Query string: Find the recorded inhibition at 10 µM belonging to COc1cc(N(C)CCN(C)C)c(NC(=O)/C=C\C(C)C)cc1Nc1nc2c(c(-c3cn(C)c4ccc(F)cc34)n1)CS(=O)(=O)CC2 and report it.
Result string: 99.4%

Query string: C=C(Cl)C(=O)Nc1cc(Nc2nc3c(c(-c4cn(C)c5ccccc45)n2)CSCC3)c(OC)cc1N(C)CCN(C)C ?
Result string: 99.6%

Query string: Ok, now CCC/C=C\C(=O)Nc1cc(Nc2nc3c(c(-c4cn(C)c5ccccc45)n2)CS(=O)(=O)CC3)c(OC)cc1N(C)CCN(C)C
Result string: 99.5%

Query string: C=C(Cl)C(=O)Nc1cc(Nc2nc3c(c(-c4cn(C)c5ccccc45)n2)CS(=O)(=O)CC3)c(OC)cc1N(C)CCN(C)C , same question.
Result string: 99%

Query string: Same lookup for C=CC(=O)Nc1cc(Nc2nc3c(c(-c4cn(C)c5ccccc45)n2)CSCC3)c(OC)cc1N(C)CCN(C)C , please.
Result string: 55.6%
